Catalogue of compounds with associated deltaTm
target desc: N-lysine methyltransferase SMYD2 (Homo sapiens, UniProt Q9NRG4)
Sequence (Q9NRG4 whole entry): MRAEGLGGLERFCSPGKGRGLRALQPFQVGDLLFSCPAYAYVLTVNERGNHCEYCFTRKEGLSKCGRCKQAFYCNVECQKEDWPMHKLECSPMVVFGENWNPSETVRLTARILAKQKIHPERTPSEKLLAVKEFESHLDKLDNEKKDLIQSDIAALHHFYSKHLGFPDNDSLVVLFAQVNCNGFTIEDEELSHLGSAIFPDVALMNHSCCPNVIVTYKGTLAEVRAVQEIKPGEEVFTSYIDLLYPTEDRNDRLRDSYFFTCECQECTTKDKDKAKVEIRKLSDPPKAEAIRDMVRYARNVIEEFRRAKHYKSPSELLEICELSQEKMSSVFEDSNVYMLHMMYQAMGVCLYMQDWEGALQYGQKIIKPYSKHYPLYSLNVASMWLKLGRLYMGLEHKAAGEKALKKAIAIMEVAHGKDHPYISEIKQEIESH
assay remarks: Binding affinity to SMYD2 (unknown origin) assessed as change in melting point at 100 uM by thermal shift assay
Kindly answer with a numeric value in K, unit omitted.

Result for CCN(C(=O)CO)C1CN(/C(=N\C#N)Nc2cccc(OC(F)F)c2)N=C1c1ccc(Cl)cc1 (stereo not drawn) , tested on N-lysine methyltransferase SMYD2 (Homo sapiens, UniProt Q9NRG4), deltaTm: 3.4

New cases:
Result for N#C/N=C(/Nc1cccc(OC(F)F)c1)N1CC(NC(=O)CO)C(c2ccc(Cl)cc2)=N1 (stereo not drawn) , tested on N-lysine methyltransferase SMYD2 (Homo sapiens, UniProt Q9NRG4), deltaTm: 1

Result for CCN(C(=O)CO)C1CN(/C(=N\C#N)Nc2cccc(OC(F)F)c2)N=C1c1cc(C)c(Cl)c(C)c1 (stereo not drawn) , tested on N-lysine methyltransferase SMYD2 (Homo sapiens, UniProt Q9NRG4), deltaTm: 3

Result for CCN(C(=O)CO)C1CN(/C(=N\C#N)Nc2ccc(F)c(Cl)c2)N=C1c1ccc(Cl)cc1 (stereo not drawn) , tested on N-lysine methyltransferase SMYD2 (Homo sapiens, UniProt Q9NRG4), deltaTm: 3.3

Result for CCCCN/C(=N/C#N)N1CC(N(CC)C(=O)CO)C(c2ccc(Cl)cc2)=N1 (stereo not drawn) , tested on N-lysine methyltransferase SMYD2 (Homo sapiens, UniProt Q9NRG4), deltaTm: 0.8

* * *

assay remarks: Aqueous solubility of the compound
Assay type: physicochemical
test context: buffer
Catalogue of compounds with associated solubility

Per the records, this compound ( `CCN(C(=O)CO)[C@H]1CN(/C(=N\C#N)Nc2cccc(OC(F)F)c2)N=C1c1ccc(Cl)c(C)c1` ) has solubility equal to < 1 mg/L

Per the records, this compound ( `CCN(C(=O)CO)[C@H]1CN(/C(=N\C#N)Nc2cc(F)cc(OC(F)F)c2)N=C1c1ccc(Cl)c(Cl)c1` ) has solubility equal to < 1 mg/L

New cases:
Per the records, this compound ( `CCN(C(=O)CO)[C@H]1CN(/C(=N\C#N)Nc2ccc(Cl)c(OC(F)F)c2)N=C1c1ccc(Cl)c(Cl)c1` ) has solubility equal to < 1 mg/L

* * *

target desc: N-lysine methyltransferase SMYD2 (Homo sapiens, UniProt Q9NRG4)
assay remarks: Binding affinity to SMYD2 (unknown origin) assessed as change in melting point at 100 uM by thermal shift assay
readout: deltaTm (K)
Kindly answer with a numeric value in K, unit omitted.

Solved cases (2 shown):
Per the records, this molecule ( N#C/N=C(/Nc1cccc(OC(F)F)c1)N1CC(N(CC2CC2)C(=O)CO)C(c2ccc(Cl)cc2)=N1 (stereo not drawn) ) has deltaTm equal to 0.1

Per the records, this molecule ( CCN(C(=O)CO)C1CN(/C(=N\C#N)Nc2ccc3c(c2)OC(F)(F)O3)N=C1c1ccc(Cl)cc1 (stereo not drawn) ) has deltaTm equal to 3.8

Continue with the molecule presented below.
Per the records, this molecule ( CCN(C(=O)CO)C1CN(/C(=N\C#N)NCCc2cccc(Cl)c2)N=C1c1ccc(Cl)cc1 (stereo not drawn) ) has deltaTm equal to -0.4
